# System: LCLC-97TM1
# MEASUREMENT_DESCRIPTION: relative viability (nuclei count vs DMSO), 5 days (fraction); higher = more cells survive
# RECORDED_CONDITIONS: first compound 0.003162 µM
As shown below, each of these molecules has a reported relative viability value.

MOLECULE	relative viability
Cc1cn(-c2cc(NC(=O)c3ccc(C)c(Nc4nccc(-c5cccnc5)n4)c3)cc(C(F)(F)F)c2)cn1 [Nilotinib] + COc1cc2c(Oc3ccc(NC(=O)C4(C(=O)Nc5ccc(F)cc5)CC4)cc3F)ccnc2cc1OCCCN1CCOCC1 [Foretinib] (partner 0.25 µM)	1.05
Cc1cn(-c2cc(NC(=O)c3ccc(C)c(Nc4nccc(-c5cccnc5)n4)c3)cc(C(F)(F)F)c2)cn1 [Nilotinib] + Cc1nc(Nc2ncc(C(=O)Nc3c(C)cccc3Cl)s2)cc(N2CCN(CCO)CC2)n1 [Dasatinib] (partner 0.075 µM)	0.896

Recorded values, source the supplement of paper PMC10307832.
